target: OsWRKY34 (Oryza sativa, UniProt Q0JBA9 1-250); experiment: protein-binding microarray (RPBM); PBS, 2% BSA, 51.3 ng/ul salmon testes DNA, 50 uM zinc acetate, 200 nM TF, 25 C, 1 h; high values mean tight binding; settings: protein: recombinant; tags: N-terminal polyhistidine and DsRed monomer fusion (pET32a); label: CyDye5-dUTP incorporated in the synthesized complementary strand; 3' TTTTT single-stranded linker to array surface; dsDNA, one strand shown
Sequence (Q0JBA9 entry or part of it): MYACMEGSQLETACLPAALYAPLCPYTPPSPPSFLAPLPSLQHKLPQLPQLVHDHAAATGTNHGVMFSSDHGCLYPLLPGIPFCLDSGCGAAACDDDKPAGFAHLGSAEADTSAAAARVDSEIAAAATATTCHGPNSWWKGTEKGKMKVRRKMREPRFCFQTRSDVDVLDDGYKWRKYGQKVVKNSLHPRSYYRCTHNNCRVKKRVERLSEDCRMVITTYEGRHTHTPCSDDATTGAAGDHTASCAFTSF
Whole data set: some 68,000 sequences, median “fluorescence intensity (a.u.)” near 9,100, cut for the highest 2% near 16,000. The sample holds the highest values, similar sequences and a random draw of the others, so the mix is not that of the screen.
Listed sequences paired with reported binding signal

Reference set, count: 5
GAATTGATCTCATGCATGCCAACCCTTCTAGCAATCTATCCGGAGTCACCTAGTGCAG 9310 fluorescence intensity (a.u.)
GCCGCCGCCGCCGCCCGCGCCGATCCCCATCCATCCCGCACGGAGTCACCTAGTGCAG 8970 fluorescence intensity (a.u.)
CGCCACCGTCCTGCTCACCGGCGTTCCGCCGGAACGACTTCGGAGTCACCTAGTGCAG 9640 fluorescence intensity (a.u.)
CTGCTATGAATTATCGGTTGCTTCCGGTGTTGGGCATTGACGGAGTCACCTAGTGCAG 12400 fluorescence intensity (a.u.)
CTAAAAGTCAATCCACGCCACCATCGATCTCTCTATCCAACGGAGTCACCTAGTGCAG 9440 fluorescence intensity (a.u.)

Suppose we examine the sequence ATACACACTTCAGTCACTCGGTAGGCCACTCCGTACGGCACGGAGTCACCTAGTGCAG ; what binding signal value has been reported?
8510 fluorescence intensity (a.u.)

Further, for AATAGATCACCACATTCAATGCAGTTCTTCCGATTAAATTCGGAGTCACCTAGTGCAG ?
9730 fluorescence intensity (a.u.)

Further, for TTGTACTACTATTTCTTCATGTTACATAATTCTCCTTGTTCGGAGTCACCTAGTGCAG ?
8540 fluorescence intensity (a.u.)

Further, for TGAACACACGCACGCAAACCCTACCTCCATGAGTATCTTCCGGAGTCACCTAGTGCAG ?
10500 fluorescence intensity (a.u.)
